Data provenance: paper PMC8458982

molecular target: hTRPC6 mutant ^hE673D (Homo sapiens, UniProt Q9Y210, E673D); assay: whole-cell patch-clamp, hTRPC6 mutant E673D
Sequence (Q9Y210 whole entry E673D): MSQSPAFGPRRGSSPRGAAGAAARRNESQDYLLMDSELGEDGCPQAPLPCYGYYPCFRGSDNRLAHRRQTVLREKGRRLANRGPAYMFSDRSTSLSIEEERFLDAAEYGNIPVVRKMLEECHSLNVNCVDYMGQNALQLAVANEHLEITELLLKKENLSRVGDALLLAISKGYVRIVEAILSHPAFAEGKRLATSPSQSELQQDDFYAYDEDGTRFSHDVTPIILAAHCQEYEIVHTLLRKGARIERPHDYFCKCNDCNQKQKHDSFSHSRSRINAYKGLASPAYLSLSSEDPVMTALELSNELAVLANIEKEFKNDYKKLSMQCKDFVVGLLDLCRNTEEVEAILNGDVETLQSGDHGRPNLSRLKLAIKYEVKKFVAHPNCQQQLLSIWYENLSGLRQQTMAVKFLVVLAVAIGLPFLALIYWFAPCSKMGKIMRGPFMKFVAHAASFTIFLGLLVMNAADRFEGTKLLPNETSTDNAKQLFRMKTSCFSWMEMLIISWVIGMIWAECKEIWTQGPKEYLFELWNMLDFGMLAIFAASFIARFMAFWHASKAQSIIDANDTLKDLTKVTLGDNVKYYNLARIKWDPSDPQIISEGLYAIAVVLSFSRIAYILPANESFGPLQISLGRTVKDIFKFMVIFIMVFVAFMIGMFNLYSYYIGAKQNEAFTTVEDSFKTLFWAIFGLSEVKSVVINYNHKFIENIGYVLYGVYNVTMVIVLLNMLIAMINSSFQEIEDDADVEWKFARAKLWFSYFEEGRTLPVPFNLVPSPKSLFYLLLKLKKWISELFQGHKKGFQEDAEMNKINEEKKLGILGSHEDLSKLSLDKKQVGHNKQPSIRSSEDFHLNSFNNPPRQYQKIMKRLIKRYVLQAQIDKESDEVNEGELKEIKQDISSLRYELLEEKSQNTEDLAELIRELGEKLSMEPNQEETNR
measured property: EC50

{"columns": ["compound", "measurement"],
 "data": [
  ["CCOC(=O)N1CCC(c2cc(O)n3nc(C)c(-c4ccc(F)cc4)c3n2)CC1 [M085]", "22.1 µM"]
]}

* * *

molecular target: hTRPC6 mutant ^hY705W (Homo sapiens, UniProt Q9Y210, Y705W); test: whole-cell patch-clamp, hTRPC6 mutant Y705W
Sequence (Q9Y210 whole entry Y705W): as the sequence (Q9Y210 whole entry E673D) above, with D673E, Y705W counted along it
measured property: EC50 (µM)

{"columns": ["compound", "experimental target", "measured property", "measurement"],
 "data": [
  ["CCOC(=O)N1CCC(c2cc(O)n3nc(C)c(-c4ccc(F)cc4)c3n2)CC1 [M085]", "hTRPC6 mutant ^hY705W (Homo sapiens, UniProt Q9Y210, Y705W)", "EC50", 35.3]
]}
